Measured inhibition by item
# Test target: Pantothenate synthetase (Mycobacterium tuberculosis (strain ATCC 25618 / H37Rv))
# Assay info: Coupled enzyme confirmation of inhibitors against recombinant Mtb PanC (AID 375);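 also: 0% = full reaction with vehicle and 100% = no enzyme background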
# Condition notes: coupled enzyme assay; at 10 µM, stronger effect = higher value
State just the number; it will be interpreted in %.

# Molecule, Readout number
measured = [
    ("C#CCOC(=O)C1C2C=CC(C2)C1C(=O)O (stereo not drawn)", 1),
    ("O=C1NC(c2ccccc2)(C(F)(F)F)SC2=NCCCN12 (stereo not drawn)", 0),
    ("O=C(Cc1c[nH]c2ccccc12)N1CCc2ccccc21", 3),
]

Task item: Report the value of inhibition obtained on Pantothenate synthetase (Mycobacterium tuberculosis (strain ATCC 25618 / H37Rv)) for CCCC(=O)NCCc1cc2c(C)ccc(C)c2[nH]c1=O .
Reply: 0

Task item: Return reported inhibition for target or system Pantothenate synthetase (Mycobacterium tuberculosis (strain ATCC 25618 / H37Rv)), item Oc1ccc(C=Nc2cccc3ncccc23)c(O)c1 .
Reply: 2

Task item: Look up Pantothenate synthetase (Mycobacterium tuberculosis (strain ATCC 25618 / H37Rv)) data: inhibition of Cc1ccc(S(=O)(=O)N2CCOCC2)cc1C(=O)OCC(=O)N1CCc2ccccc2C1 , then report it.
Reply: 0

Task item: Under Pantothenate synthetase (Mycobacterium tuberculosis (strain ATCC 25618 / H37Rv)): report inhibition of Cc1ccc(-c2cc(C(F)F)nc(N3CCC(C)CC3)n2)cc1 .
Reply: 6

Task item: Name the recorded inhibition of c1n[nH]c(SCCCCSc2ncn[nH]2)n1 , assay system Pantothenate synthetase (Mycobacterium tuberculosis (strain ATCC 25618 / H37Rv)).
Reply: 6

Task item: # return inhibition for COc1ccc(C(c2nnnn2C2CCCC2)N2CCC(C)CC2)c(OC)c1 (stereo not drawn) , test system: Pantothenate synthetase (Mycobacterium tuberculosis (strain ATCC 25618 / H37Rv))
Reply: 3

Task item: Fill in: inhibition on Pantothenate synthetase (Mycobacterium tuberculosis (strain ATCC 25618 / H37Rv)), entry CC(C)(C)C(=O)OCC1OC(n2cnc(C(N)=O)n2)C(O)C1O (stereo not drawn)
Reply: 3

Task item: Report inhibition from Pantothenate synthetase (Mycobacterium tuberculosis (strain ATCC 25618 / H37Rv)) testing of CC(=O)c1cccc(S(=O)(=O)NCC(c2ccco2)N2CCCCC2)c1 (stereo not drawn)
Reply: 0

Task item: For Pantothenate synthetase (Mycobacterium tuberculosis (strain ATCC 25618 / H37Rv)), give the measured inhibition of the entry COc1cc(NS(=O)(=O)N2CCCC2)cc(OC)c1OC
Reply: 0

Task item: Under Pantothenate synthetase (Mycobacterium tuberculosis (strain ATCC 25618 / H37Rv)), report inhibition for COCCOc1nc2ccccc2nc1C
Reply: 0

----------
# key: entry, value: inhibition
# Test target: Pantothenate synthetase (Mycobacterium tuberculosis (strain ATCC 25618 / H37Rv)) (UniProt P9WIL5)
# Sequence (P9WIL5 whole entry, looked up): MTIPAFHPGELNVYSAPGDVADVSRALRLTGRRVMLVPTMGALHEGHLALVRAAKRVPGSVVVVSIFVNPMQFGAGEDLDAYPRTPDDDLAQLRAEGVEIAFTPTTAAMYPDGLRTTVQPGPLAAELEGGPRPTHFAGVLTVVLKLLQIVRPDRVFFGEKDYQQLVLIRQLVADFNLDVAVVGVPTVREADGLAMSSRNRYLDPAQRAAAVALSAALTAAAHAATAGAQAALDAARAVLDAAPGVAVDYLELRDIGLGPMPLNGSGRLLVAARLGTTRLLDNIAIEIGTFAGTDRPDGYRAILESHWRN
# Assay info: Coupled enzyme confirmation of inhibitors against recombinant Mtb PanC (AID 375);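 also: 0% = full reaction with vehicle and 100% = no enzyme background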
# Condition notes: coupled enzyme assay; at 10 µM, stronger effect = higher value
Report only the number, with the unit % understood.

# Compound, Unit abbreviation, Readout number
rows = [
    ("CN(Cc1nc(-c2ccncc2)no1)S(=O)(=O)c1ccc(Br)cc1", "%", 2),
    ("Cc1nc2ccccc2c2oc(C(=O)NCCN3CCCCC3C)cc12 (stereo not drawn)", "%", 0),
    ("CC1=C(C(=O)NC2CCCC(C)C2C)C2(CCCCC2)OC1=O (stereo not drawn)", "%", 0),
    ("Nc1ccc(C(=O)OCCCc2nc3ccccc3[nH]2)cc1", "%", 3),
    ("Cn1cc(CN2CCc3ccccc3C2)c2ccccc21", "%", 9),
]

Okay, next one:
Task item: Provide measured inhibition value, entry: Cc1cc(C)n(-c2cc(N3CCOCC3)ncn2)n1
Reply: 1
